Please respond with reported Plant response rating, Deadnettle for every item in the list.
System: deadnettle
Test: Test D preemergence
Assay type: in vivo, Lamium amplexicaule
Conditions: Preemergence, 62 g ai/ha; scale 0 to 100
Answer as a number with no unit attached.

Sure, the documented Plant response rating, Deadnettle for CCc1cc(C(=O)NCC(F)(F)F)nn1Cc1ccnc(SC(F)(F)F)c1 is 100

Sure, the documented Plant response rating, Deadnettle for CCc1cc(C(=O)NC2CC2)nn1Cc1ccnc(C(F)(F)F)c1 is 100

Sure, the documented Plant response rating, Deadnettle for CCCc1cc(C(=O)NC(C)C)nn1Cc1cc(C(F)(F)F)nn1C is 100

Sure, the documented Plant response rating, Deadnettle for CCc1cc(C(=O)NOC(C)C)nn1Cc1cccc(OC(F)(F)F)c1 is 30

---

Please respond with reported Foxtail, Giant plant response rating for every item in the list.
Tested on: foxtail, giant
Assay: Test C preemergence
Type: in vivo, Setaria faberii
Details: preemergence, 31 g ai/ha; visual rating, scale 0 to 100 (0 no effect, 100 complete control), 13 to 15 days
Answer as a number with no unit attached.

Assay foxtail, giant, sample CCNC(=O)c1cc(CC)n(Cc2cc(C(F)(F)F)nn2C)n1 , Foxtail, Giant plant response rating read: 30

Assay foxtail, giant, sample CCc1cc(C(=O)NCC(F)(F)F)nn1Cc1nc(C(F)(F)F)nn1C , Foxtail, Giant plant response rating read: 100

Assay foxtail, giant, sample CCc1cc(-c2ccc(C(F)(F)F)cc2)nn1Cc1ccnc(C(F)(F)F)c1 , Foxtail, Giant plant response rating read: 98

Assay foxtail, giant, sample CCCNC(=O)c1cc(OCC)n(Cc2ccnc(OC(F)F)c2)n1 , Foxtail, Giant plant response rating read: 100

Assay foxtail, giant, sample CCCNC(=O)c1cc(CC)n(Cc2nc(C(F)(F)F)nn2C)n1 , Foxtail, Giant plant response rating read: 100

Assay foxtail, giant, sample O=C(NCC(F)(F)F)c1cc(CCF)n(Cc2ccnc(C(F)(F)F)c2)n1 , Foxtail, Giant plant response rating read: 75

Assay foxtail, giant, sample CCCNC(=O)c1cc(CCF)n(Cc2ccnc(C(F)(F)F)c2)n1 , Foxtail, Giant plant response rating read: 85

Assay foxtail, giant, sample CCCc1cc(C(=O)NC2CC2)nn1Cc1ccnc(OC(F)F)c1 , Foxtail, Giant plant response rating read: 100

Assay foxtail, giant, sample CCOc1cc(C(=O)NCC(F)(F)F)nn1Cc1ccnc(OC(F)F)c1 , Foxtail, Giant plant response rating read: 98

Assay foxtail, giant, sample CCc1cc(C(=O)NOC(C)C)nn1Cc1ccnc(OC(F)F)c1 , Foxtail, Giant plant response rating read: 45

Assay foxtail, giant, sample CCc1cc(C(=O)NCC(F)(F)F)nn1Cc1ccnc(SC(F)(F)F)c1 , Foxtail, Giant plant response rating read: 90

---

Please respond with reported Foxtail, Giant plant response rating for every item in the list.
System: foxtail, giant
Experiment: Test A preemergence
Format: in vivo, Setaria faberii
Details: Preemergence, 500 g ai/ha; 0 to 100 scale, 0 no effect, 100 complete control

Assay foxtail, giant, sample Cc1cc(C(=O)NCC(F)(F)F)nn1Oc1ccnc(C(F)(F)F)c1 , Foxtail, Giant plant response rating read: 90

Assay foxtail, giant, sample CCONC(=O)c1cc(CC)n(Cc2ccnc(C(F)(F)F)c2)n1 , Foxtail, Giant plant response rating read: 100

Assay foxtail, giant, sample Cc1cc(C(=O)NCC(F)(F)F)nn1Cc1cccc(C(F)(F)F)c1F , Foxtail, Giant plant response rating read: 20

Assay foxtail, giant, sample CCCNC(=O)c1cc(CC)n(Oc2ccnc(C(F)(F)F)c2)n1 , Foxtail, Giant plant response rating read: 100

Assay foxtail, giant, sample Cc1cc(C(=O)NCC(F)(F)C(F)(F)F)nn1Cc1cccc(OC(F)(F)F)c1 , Foxtail, Giant plant response rating read: 20
